# test.target: Vesicular acetylcholine transporter (Torpedo californica)
# experiment: Inhibition of active transport of [3H]acetylcholine using purified Torpedo californica synaptic vesicles
# IC50 values compiled below
Entry rule: numbers only, all in nM.

The recorded IC50 for entry O[C@@H]1[C@H](O)CCC[C@H]1N1CCC(c2ccccc2)CC1 equals 100

The recorded IC50 for entry OC1CCCCC1N1CCN(Cc2ccc3c(c2)OCO3)CC1 (stereo not given) equals 300

The recorded IC50 for entry Cc1ccccc1N1CCN(C2CCCCC2O)CC1 (stereo not given) equals 100

The recorded IC50 for entry CCC(CN1CCC(c2ccccc2)CC1)OC(C)=O (stereo not given) equals 800

Would you kindly look at the next entry?
The recorded IC50 for entry CC(=O)OCCN1CCC(c2ccccc2)CC1 equals 9000
